pKi: −log10 of the molar value.
pKi, human M4 receptor (Homo sapiens (Human), UniProt P08173), per-entry values.

Would you please look over these solved cases?
molecule: CC(C)S(=O)(=O)c1cnc(N2C[C@@H](C)N(C(=O)OC3CC4(C3)CN(Cc3ccccc3)C4)C[C@@H]2C)nc1
system under test: human M4 receptor (Homo sapiens (Human), UniProt P08173)
Sequence (P08173 whole entry): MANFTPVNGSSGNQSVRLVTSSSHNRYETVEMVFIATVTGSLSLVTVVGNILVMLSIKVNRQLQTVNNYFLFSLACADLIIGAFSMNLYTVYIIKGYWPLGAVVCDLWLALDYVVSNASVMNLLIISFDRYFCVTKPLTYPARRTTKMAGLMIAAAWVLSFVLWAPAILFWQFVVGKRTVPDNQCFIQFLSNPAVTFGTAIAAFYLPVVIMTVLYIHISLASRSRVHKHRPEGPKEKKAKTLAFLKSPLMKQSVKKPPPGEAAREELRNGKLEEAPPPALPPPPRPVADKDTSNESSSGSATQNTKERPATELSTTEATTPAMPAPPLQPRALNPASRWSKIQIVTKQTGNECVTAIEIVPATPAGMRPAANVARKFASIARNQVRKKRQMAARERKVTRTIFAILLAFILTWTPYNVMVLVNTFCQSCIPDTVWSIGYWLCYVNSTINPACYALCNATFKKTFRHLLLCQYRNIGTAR
pKi: > 7.00

molecule: COc1ccccc1CN1CC2(CC(OC(=O)N3[C@H](C)CN(c4ncc(S(C)(=O)=O)cn4)C[C@@H]3C)C2)C1
system under test: human M4 receptor (Homo sapiens (Human), UniProt P08173)
pKi: ≤ 6.30

molecule: C[C@@H]1CN(c2ncc(S(=O)(=O)C3CC3)cn2)CCN1C(=O)NC1CC2(C1)CN(Cc1ccccc1)C2
system under test: human M4 receptor (Homo sapiens (Human), UniProt P08173)
pKi: 6.30 to 7.00

molecule: C[C@@H]1CN(c2ncc(N3CCC3=O)cn2)C[C@H](C)N1C(=O)OC1CC2(C1)CN(Cc1ccccc1)C2
system under test: human M4 receptor (Homo sapiens (Human), UniProt P08173)
pKi: ≤ 6.30

molecule: C[C@@H]1CN(c2ncc(S(C)(=O)=O)cn2)CCN1C(=O)OC1CC2(C1)CN(Cc1ccccc1)C2
system under test: human M4 receptor (Homo sapiens (Human), UniProt P08173)
pKi: 6.30 to 7.00

molecule: COc1cnc(N2C[C@@H](C)N(C(=O)OC3CC4(C3)CN(Cc3ccccc3)C4)[C@@H](C)C2)nc1
system under test: human M4 receptor (Homo sapiens (Human), UniProt P08173)
pKi: ≤ 6.30

molecule: C[C@@H]1CN(c2ncc(OC3CC3)cn2)C[C@H](C)N1C(=O)OC1CC2(C1)CN(Cc1ccccc1)C2
system under test: human M4 receptor (Homo sapiens (Human), UniProt P08173)
pKi: ≤ 6.30

molecule: COc1ccc(CN2CC3(CC(OC(=O)N4[C@H](C)CN(c5ncc(S(C)(=O)=O)cn5)C[C@@H]4C)C3)C2)cc1
system under test: human M4 receptor (Homo sapiens (Human), UniProt P08173)
pKi: > 7.00

Query: Give pKi for this entry on human M4 receptor (Homo sapiens (Human), UniProt P08173): C[C@@H]1CN(c2ncc(S(C)(=O)=O)cn2)C[C@H](C)N1C(=O)OC1CC2(C1)CN(Cc1ccc(Cl)cc1)C2
Reply: > 7.00

Query: Give pKi for this entry on human M4 receptor (Homo sapiens (Human), UniProt P08173): CCS(=O)(=O)c1cnc(N2CCN(C(=O)NC3CC4(C3)CN(Cc3ccccc3)C4)[C@H](C)C2)nc1
Reply: 6.30 to 7.00
